All values here come from PubChem BioAssay (NCI).

# Test system: SNB-75 CNS
# measurement.protocol: NCI-60 one-dose screen, 48 h (100 = growth as untreated, 0 = no growth, -100 = all killed)
# recorded.conditions: 10 µM
About 83,000 compounds went through this panel and 20% of them were active in at least one assay; those are over-represented in the sample as a whole.
So I've got a bunch of compounds here, and I need their growth values.
Give your result in % as a bare value.

Asked: // growth lookup, key: COCCOC(=O)NC(=O)Nc1ccc(/C(=N/O)c2ccc(Cl)cc2)cc1
Given back: 19.9

Asked: Now consider CCN1CCN(c2ccc(Nc3ncnc4c3nnn4CCc3cc(OC)cc(OC)c3)cc2)CC1 .
Given back: 79.8

Asked: Field entry: COc1cc(/C=C/C(=O)c2cc(-c3ccc(F)cc3)ccc2O)cc(OC)c1OC
Given back: 91.9

Asked: How about CCCCOCC(=O)NC(NP(=O)(N(C)C)N(C)C)C(Cl)(Cl)Cl (stereo unspecified) ?
Given back: 106

Asked: Likewise for O=C(Nc1cccc(F)c1)Nc1cccc(Cl)c1 ?
Given back: 89.1

Asked: Try the compound C=CCNC(=S)NN
Given back: 95.3

Asked: Also COc1ccc(CSc2nc3cc(OC)c(OC)cc3c(=O)n2-c2ccc(OC)cc2OC)cc1 ?
Given back: 90.3

Asked: # iterate: C[n+]1c(/C=C/c2c[nH]c3ccccc23)ccc2ccccc21
Given back: 90.9

Asked: Now consider COc1ccc(C(=O)c2sc3nc(-c4cccs4)ccc3c2N)cc1OC and answer again.
Given back: 52.1

Asked: Here is the next compound: CCOCC[P+](c1ccccc1)(c1ccccc1)c1ccccc1
Given back: 46.7

Asked: Try CCN(CC)CC(O)Cc1ccc(OC)cc1 (stereo unspecified) next.
Given back: 102

###

# Test system: ACHN renal
# measurement.protocol: NCI-60 one-dose screen, 48 h (100 = growth as untreated, 0 = no growth, -100 = all killed)
# recorded.conditions: 10 µM
Compounds without any hit were thinned out: in the full panel of roughly 83,000, 20% have a hit.
Consider the following compounds; for each one, report its growth.
Entry rule: numbers only, all in %.

Asked: Which measured growth belongs to CCOC(=O)c1cc(-c2ccccc2)nc(N)n1 , tested on ACHN renal?
Given back: 92.7

Asked: Can you check c1ccc(C2CCCCC2)c(OCCCCCN2CCNCC2)c1 next?
Given back: 53.3

Asked: Another compound to look at: N#Cc1cnc2ccc(NCc3cnc[nH]3)cc2c1Nc1ccc(F)c(Cl)c1
Given back: 24.6

Asked: And CCCCOCC(=O)NC(NP(=O)(N(C)C)N(C)C)C(Cl)(Cl)Cl (stereo unspecified) ?
Given back: 143

Asked: Quick one: COc1ccc(-c2nc3sc(-c4ccccc4)c(-c4ccccc4)n3c2/C=C/c2ccc(F)cc2)cc1
Given back: 78.9

Asked: Would you kindly repeat that for CCN(CC)CC(O)Cc1ccc(OC)cc1 (stereo unspecified) ?
Given back: 108

Asked: // query: CCOC(=O)C1=C(Nc2ccc(OC)cc2)C(N)=NC1=N
Given back: 46.6

Asked: And for CC(CNC(Cc1ccccc1)c1ccccc1)NC(Cc1ccccc1)c1ccccc1 (stereo unspecified) ?
Given back: 47.7

Asked: Try this compound next: COc1cc(Cn2c(-c3ccccc3)c(Cl)c3c2-c2oncc2CC3)cc(OC)c1
Given back: 69.2

Asked: Let us now turn to CCCCCC(CCC)COC(=O)c1ccc(OC)cc1 (stereo unspecified)
Given back: 106

Asked: And then COc1ccc(C(=O)c2sc3nc(-c4cccs4)ccc3c2N)cc1OC , what is it?
Given back: 64.7

###

Kindly supply the reported growth values for the records listed here.
# Test system: SF-295 CNS
# measurement.protocol: NCI-60 one-dose screen, 48 h (100 = growth as untreated, 0 = no growth, -100 = all killed)
# recorded.conditions: 10 µM
# Experimental: Cells are grown in 96 well plates and exposed to the test compound for 48 hours. Compounds are tested at a single concentration, which is 10^-5 M for most compounds. The reported endpoint is percent growth (GI% or GIPRCNT), where numbers from 0 - 100% represent growth inhibition, and numbers from -100% - 0 represent cell death. For example, a value of 40 represents 60% growth inhibition. A value of 0 means no net growth occurred over the course of the experiment. […]
About 83,000 compounds went through this panel and 20% of them were active in at least one assay; those are over-represented in the sample as a whole.
Give just the number in %; leave the unit off.

Asked: I am curious: what growth value has been reported for N=C(N)c1ccc(-c2ccc(-c3ccccc3)s2)cc1F ?
Given back: -77.9

Asked: One more compound: COc1ccc2nc(-c3ccccc3)cc(C(C)=O)c2c1
Given back: 96.3

Asked: Param item: CNC(=O)c1cc(Oc2ccc(NC(=O)Nc3ccc(Cl)c(OC(C)C)c3)c(F)c2)ccn1
Given back: 33.3

Asked: Consider next the compound CCCCCN(CCCCC)C(C)C(O)c1ccc2cc(Cl)c3ccccc3c2c1 (configuration not stated) in the same way.
Given back: 82.7

Asked: How about CCCCCCOc1ccc(/C=C/C(=O)c2ccc(B(O)O)cc2)cc1 ?
Given back: 111

Asked: Again, but for COc1cc(OC)cc(N2CCN(C(=O)Nc3nc4cc(F)ccc4nc3OC)CC2)c1
Given back: 15

Asked: Please do the same for Cc1ncc([N+](=O)[O-])n1CCOc1ccc(C(=O)/C=C/c2ccc(C(F)(F)F)cc2)cc1 as well.
Given back: 73.8

Asked: // same read-out, input: O=[N+]([O-])c1ccc(-c2nc(Cl)c3c(n2)CCCC3)o1
Given back: 115

Asked: Next compound up: COc1cc(-c2nc3cc(Cl)c(Cl)cc3[nH]2)ccc1OCC(=O)NN
Given back: 71.5

Asked: Next record, please: COCCOC(=O)NC(=O)Nc1ccc(/C(=N/O)c2ccc(Cl)cc2)cc1
Given back: -8.84

Asked: // next record COc1ccc(CCc2nc3cc(-c4c(C)noc4C)ccc3n2CCN2CCOCC2)cc1
Given back: -35

Asked: Item: CCn1nc(-c2ccccn2)c2cccnc2c1=S
Given back: 78.1

Asked: Input O=C(NC1CCCC1)c1ccc(N2CCC(NCc3cccc(C(F)(F)F)c3)CC2)cc1
Given back: 96.3

Asked: Then S=c1c2ncccc2c(-c2ccccn2)nn1Cc1ccccn1 ?
Given back: 96

Asked: // query: CCCCCCCCCCCCCC[n+]1ccc(C)cc1
Given back: -67.1

Asked: Try the compound CC(C)C[C@H](NC(=O)CCn1ccc2ccccc2c1=O)B(O)O
Given back: 41

Asked: # repeat for CCCCCC(=O)N1c2ccccc2NC2=C(C(=O)CC(c3ccc(OC)c(OC)c3)C2)C1c1ccc(C(F)(F)F)cc1 (configuration not stated)
Given back: 36.1

Asked: Then this compound: Cc1ccc([P+](Cc2ccc([N+](=O)[O-])cc2)(c2ccc(C)cc2)c2ccc(C)cc2)cc1
Given back: 45.2

Asked: How about COc1ccc2nc(NC(=O)Nc3c(F)cccc3F)sc2c1 ?
Given back: 102

Asked: And the next one, CC(C)(C)c1ccc(OCCCCCCN2CCNCC2)cc1 ?
Given back: 57.7

Asked: Would you kindly repeat that for CCc1c(C(=O)NCc2c(O)ccc3cccc(O)c23)[nH]c(C)c1C(C)=O ?
Given back: 11.8

Asked: Queued: O=C(COCc1c(-c2ccccc2)no[n+]1[O-])Nc1nc(-c2ccc(Cl)cc2)cs1
Given back: 101

###

Record form. Attribute: growth. Fill in for each entry.
# Tested on: A549/ATCC NSCLC
# measurement.protocol: NCI-60 one-dose screen, 48 h (100 = growth as untreated, 0 = no growth, -100 = all killed)
# recorded.conditions: 10 µM
About 83,000 compounds went through this panel and 20% of them were active in at least one assay; those are over-represented in the sample as a whole.
Please reply with the bare figure in % and do not write the unit itself.

Asked: Entry CCCCCCCCCCCCc1ccc(C(=O)/C=C/C(=O)O)cc1 : reported growth = ?
Given back: 78.4

Asked: Same question, CCOC(=O)C(=O)Cc1cccnn1 this time
Given back: 97.5

Asked: Also Cc1cnc(C=O)c2cccc([N+](=O)[O-])c12 , if possible.
Given back: 104

Asked: // next record N#CN1CC[C@H](C(=O)Nc2ncc(-c3ccncc3)s2)C1
Given back: -32.4

Asked: Further, for COc1ccc(-c2ccccc2)cc1C(=O)c1ccc(-c2ccccc2)cc1 ?
Given back: 63.7

Asked: Entry COc1cc(-c2nc3cc(Cl)c(Cl)cc3[nH]2)ccc1OCC(=O)NN please
Given back: 71

Asked: For NC(=O)c1ccc(Br)o1 then?
Given back: 109

Asked: Queued: CCCCCCCCCCN=C(c1ccc(N(C)C)cc1)c1ccc(N(C)C)cc1
Given back: 30.5

Asked: Similarly, CCCCCCCCCCCCCCCCCBr ?
Given back: 108

Asked: What do we get for CCCCCCCCCCSC(=N)N (tested in a mixture with another compound) ?
Given back: 75.3

Asked: One more compound: Cc1ccc(S(=O)(=O)Nc2cccc3[nH]c(C(F)(F)F)nc23)cc1
Given back: 24

Asked: Now consider O=[N+]([O-])c1ccc(Br)o1 and answer again.
Given back: 104

Asked: Param item: CCN(CC)CCCOC(=O)Nc1ccccc1Cl
Given back: 107

Asked: Follow-up item: COc1ccc(-c2csc(NC(=O)CO[N+](=O)[O-])n2)cc1
Given back: 84.9

Asked: Now the same for CN1/C(=C\C(I)C(I)C2=[N+](C)c3ccccc3C2(C)C)C(C)(C)c2ccccc21 (configuration not stated)
Given back: 11.3

Asked: Request: O=C(Nc1cccc(Cl)c1)OCC(COC(=O)Nc1cccc(Cl)c1)(COC(=O)Nc1cccc(Cl)c1)[N+](=O)[O-]
Given back: 26.2

Asked: Same for CCC(CCNc1cc(OC)cc2cccnc12)CN1C(=O)c2ccccc2C1=O (configuration not stated)
Given back: 105

Asked: Note, next up: CC1=CSC2=NC(c3ccc(Cl)c(Cl)c3)=CC(c3ccc(Cl)cc3)N12 (configuration not stated)
Given back: 51.1

Asked: And the next one, Oc1ccc(/C=N\Nc2ccccn2)c(O)c1 ?
Given back: 26.6

Asked: Consider next the compound O=NN(CCCl)C(=O)Nc1ccc(NC(=O)N(CCCl)N=O)cc1 in the same way.
Given back: 82.8

Asked: How about CCN(Cc1ccccc1)C1CCN(Cc2cc(Br)ccc2O)CC1 ?
Given back: 58.9

Asked: Next compound: CC1(C)CCc2cc(-c3ccn(S(=O)(=O)c4ccc(Cl)cc4)n3)ccc2O1
Given back: 67.4

Asked: // repeat for CCOC(=S)Sc1ccc([N+](=O)[O-])cc1[N+](=O)[O-] and report
Given back: 83.2

Asked: And then CCOC(=O)Nc1ccc2c(c1)C(=O)N(CCOC)c1ccccc1O2 , what is it?
Given back: 44.8

Asked: Can you handle CCCCOCC(=O)NC(NP(=O)(N(C)C)N(C)C)C(Cl)(Cl)Cl (configuration not stated) next?
Given back: 102

Asked: Then what about the compound CCNC1(NC#N)CCCCC1 ?
Given back: 91.4

Asked: Same question, CS(=O)(=O)Nc1ccc(OCc2nnc(-c3ccc(Cl)cc3)o2)c(F)c1 this time
Given back: 90.2

Asked: Ok, now Oc1[nH]c2ccccc2c1/C=c1/cc2c(c(-c3ccc(C(F)(F)F)cc3)n1)=Nc1ccccc1-2
Given back: 56.8

Asked: Now give it for CC(C)c1ncc(CO)n1Cc1c(Cl)cccc1Cl too.
Given back: 102

Asked: Also CCCCn1c(=O)[nH]c(N)c(C(c2ccc(Cl)cc2)c2c(N)[nH]c(=O)n(CCCC)c2=O)c1=O , if possible.
Given back: 40.2

Asked: And then CCCCCCN=C(N)CCCCCCCCCCC(N)=NCCCCCC , what is it?
Given back: 33.7

Asked: Note, next up: Cc1ccc(S(=O)(=O)Oc2ccccc2-c2ccccc2)cc1
Given back: 42.4

Asked: Please give the result for Cc1cc2cc3c(=O)[nH]c(=O)cc-3n(CC(O)C(O)C(O)CO)c2cc1C (configuration not stated) too.
Given back: 97.8

Asked: # iterate: CC(=O)c1c(O)cc2c3c1OC(C)(C)C1CCC(C)(CC31)O2 (configuration not stated)
Given back: 98.1

Asked: Can you handle COc1nc2c(c(=O)[nH]1)C(c1ccc(Oc3ccnc4cc(Cl)ccc34)c(OC)c1)C=C(c1cc(OC)c(OC)c(OC)c1)N2 (configuration not stated) next?
Given back: 101

Asked: Also CCCCn1c(=O)[nH]c2c(c1=O)C(c1ccc(Cl)cc1)c1c([nH]c(=O)n(CCCC)c1=O)N2 ?
Given back: 87.8

Asked: What do you have for C=CCn1ccc(=O)nc1SC ?
Given back: 111

Asked: Now the compound COc1cc(C2=Nc3c/c(=C\c4c(O)[nH]c5ccc(Cl)cc45)ccc3=N2)cc(OC)c1OC
Given back: 56.5

Asked: For COc1ccc(C(=O)/C=C/c2cc(-c3ccc4c(c3)OCO4)n[nH]2)cc1OC then?
Given back: 37.9

Asked: Next entry: O=C1NN(c2ccccc2)C(c2cccnc2)=N/C1=C\c1cccnc1
Given back: 112

Asked: Request: COC(=O)[C@]12CC[C@@H](C)[C@H](C)[C@@H]1C1=CC[C@@H]3[C@@]4(C)C/C(=N\O)[C@H](O)[C@@]5(C)COC(=C45)C[C@@]3(C)[C@]1(C)CC2
Given back: -90.6

Asked: Please answer likewise for COc1cccc2c1C(=O)c1c(O)c3c(c(O)c1C2=O)C[C@@](O)(C(=O)COC(=O)c1ccccc1)C[C@@H]3OC1CC(N)C(O)C(C)O1 (some centres not stated)
Given back: -85.1
